Experimental system: Geranylgeranyl pyrophosphate synthase (Homo sapiens) (UniProt O95749)
Sequence (whole entry): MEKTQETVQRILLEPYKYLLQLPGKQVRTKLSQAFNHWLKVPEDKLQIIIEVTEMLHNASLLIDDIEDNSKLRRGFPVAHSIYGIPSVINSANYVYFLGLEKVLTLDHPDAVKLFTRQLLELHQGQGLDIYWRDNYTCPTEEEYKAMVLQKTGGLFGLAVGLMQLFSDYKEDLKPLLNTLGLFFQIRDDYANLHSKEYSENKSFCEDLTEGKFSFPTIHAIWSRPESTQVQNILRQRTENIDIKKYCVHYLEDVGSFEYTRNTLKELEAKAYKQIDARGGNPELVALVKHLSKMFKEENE
Procedure summary: Inhibition of GGDPS in human RPMI-8226 cells assessed as disruption of Rap1a geranylgeranylation at 10 uM after 48 hrs by western blot analysis
Assay type: cell-based
Activity calls are given as the source filed them. No cut-off for these calls is given here.
Outcomes you can answer with include only these: true (active), false (inactive)

Worked examples follow.
{"columns": ["Compound", "Category label"],
 "data": [
  ["CC(C)=CCC/C(C)=C/Cn1cc(CC(P(=O)(O)O)P(=O)(O)O)nn1", "true"],
  ["CC(C)=CCC[C@@]1(C)O[C@@H]1Cn1cc(CC(P(=O)(O)O)P(=O)(O)O)nn1 (racemic)", "false"]
]}

Q: Record request — test call for CC(C)=CCC/C(C)=C\Cn1cc(CC(P(=O)(O)O)P(=O)(O)O)nn1
A: true

Q: Record request — test call for CC(C)=CCC[C@]1(C)O[C@@H]1Cn1cc(CC(P(=O)(O)O)P(=O)(O)O)nn1 (racemic)
A: false

Q: Record request — test call for CC(C)=CCC/C(C)=C/CC(C/C=C(\C)CCC=C(C)C)(P(=O)(O)O)P(=O)(O)O
A: true

Q: Record request — test call for CC(C)=CCCC(C)=CCn1cc(CC(P(=O)(O)O)P(=O)(O)O)nn1 (mixture of isomers)
A: true

====

Experimental system: Farnesyl pyrophosphate synthase (Homo sapiens, UniProt P14324)
Sequence (P14324 whole entry): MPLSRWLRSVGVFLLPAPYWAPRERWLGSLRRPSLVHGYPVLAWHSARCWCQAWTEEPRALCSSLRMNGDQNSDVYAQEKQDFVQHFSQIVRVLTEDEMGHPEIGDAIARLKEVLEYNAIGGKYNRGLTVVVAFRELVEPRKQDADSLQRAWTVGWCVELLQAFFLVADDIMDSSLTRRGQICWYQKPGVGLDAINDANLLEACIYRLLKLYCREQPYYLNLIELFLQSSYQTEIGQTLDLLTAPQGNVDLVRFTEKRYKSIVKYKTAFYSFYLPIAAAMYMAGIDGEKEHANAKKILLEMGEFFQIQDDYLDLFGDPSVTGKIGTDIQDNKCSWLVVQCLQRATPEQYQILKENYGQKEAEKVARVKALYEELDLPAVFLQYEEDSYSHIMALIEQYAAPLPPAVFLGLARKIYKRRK
Procedure summary: Inhibition of recombinant FDPS (unknown origin) assessed as decrease in radiolabeld […] level using GPP and [14C]IPP as substrate treated with enzyme for 10 mins prior to substrate challenge for 30 mins by liquid scintillation counting analysis
Exercise: state measured pIC50 for each of the compounds provided.
Give bare numbers, as −log10 of the molar value.

{"columns": ["Compound", "pIC50"],
 "data": [
  ["CC(C)=CCC[C@]1(C)O[C@@H]1Cn1cc(CC(P(=O)(O)O)P(=O)(O)O)nn1 (racemic)", 4.33],
  ["CC(C)=CCC/C(C)=C/Cn1cc(CC(P(=O)(O)O)P(=O)(O)O)nn1", 4.24],
  ["CC(C)=CCC[C@@]1(C)O[C@@H]1Cn1cc(CC(P(=O)(O)O)P(=O)(O)O)nn1 (racemic)", 4.48],
  ["CC(C)=CCCC(C)=CCn1cc(CC(P(=O)(O)O)P(=O)(O)O)nn1 (mixture of isomers)", 4.08]
]}

Could you now look at the following compound, please?
In plain terms, CC(C)=CCC/C(C)=C\Cn1cc(CC(P(=O)(O)O)P(=O)(O)O)nn1 has a documented pIC50 of 4.10

====

Experimental system: Geranylgeranyl transferase type I (Homo sapiens, UniProt P49354+P53609)
Procedure summary: Inhibition of recombinant GGTase 1 (unknown origin) assessed as decrease in prenylated fluorescent peptides level using dansyl-GCVLS and GGPP as substrate after 1 hr by HPLC-fluorescence detection analysis
Observed property: IC50 (µM)
Give bare numbers, in µM.

As a guide, the following entries are already answered.
{"columns": ["Compound", "IC50 (µM)"],
 "data": [
  ["CC(C)=CCCC(C)=CCn1cc(CC(P(=O)(O)O)P(=O)(O)O)nn1 (mixture of isomers)", 200],
  ["CC(C)=CCC[C@@]1(C)O[C@@H]1Cn1cc(CC(P(=O)(O)O)P(=O)(O)O)nn1 (racemic)", 500],
  ["CC(C)=CCC/C(C)=C\\Cn1cc(CC(P(=O)(O)O)P(=O)(O)O)nn1", 500],
  ["CC(C)=CCC[C@]1(C)O[C@@H]1Cn1cc(CC(P(=O)(O)O)P(=O)(O)O)nn1 (racemic)", 300]
]}

Could you now look at the following compound, please?
In plain terms, CC(C)=CCC/C(C)=C/Cn1cc(CC(P(=O)(O)O)P(=O)(O)O)nn1 has a documented IC50 of 340

====

Experimental system: Geranylgeranyl pyrophosphate synthase (Homo sapiens)
Procedure summary: Inhibition of GGDPS in human RPMI-8226 cells assessed as disruption of Rab6 geranylgeranylation at 10 uM after 48 hrs by western blot analysis
Type: cell-based
Active and inactive are the calls of the source. The calls are words filed in the database; no cut-off is given here.
Outcomes you can answer with include only these: 1 (yes) for active, 0 (no) for inactive

{"columns": ["Molecule", "Category label"],
 "data": [
  ["CC(C)=CCC/C(C)=C/CC(C/C=C(\\C)CCC=C(C)C)(P(=O)(O)O)P(=O)(O)O", "1 (yes)"],
  ["CC(C)=CCCC(C)=CCn1cc(CC(P(=O)(O)O)P(=O)(O)O)nn1 (mixture of isomers)", "1 (yes)"],
  ["CC(C)=CCC/C(C)=C\\Cn1cc(CC(P(=O)(O)O)P(=O)(O)O)nn1", "1 (yes)"],
  ["CC(C)=CCC[C@@]1(C)O[C@@H]1Cn1cc(CC(P(=O)(O)O)P(=O)(O)O)nn1 (racemic)", "0 (no)"]
]}

Moving on to the next molecule.
Q: Record request — test call for CC(C)=CCC[C@]1(C)O[C@@H]1Cn1cc(CC(P(=O)(O)O)P(=O)(O)O)nn1 (racemic)
A: 0 (no)

====

Experimental system: Geranylgeranyl pyrophosphate synthase (Homo sapiens) (UniProt O95749)
Sequence (whole entry): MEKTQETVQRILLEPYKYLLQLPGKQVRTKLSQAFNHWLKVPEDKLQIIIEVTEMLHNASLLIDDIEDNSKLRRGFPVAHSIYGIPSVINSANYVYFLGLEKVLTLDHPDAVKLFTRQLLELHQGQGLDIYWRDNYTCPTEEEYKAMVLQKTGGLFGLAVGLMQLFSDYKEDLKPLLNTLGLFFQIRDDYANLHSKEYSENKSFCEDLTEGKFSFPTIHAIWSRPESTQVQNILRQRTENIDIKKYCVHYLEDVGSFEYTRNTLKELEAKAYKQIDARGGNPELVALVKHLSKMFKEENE
Condition details: RPMI-8226, 10 uM
Description: Inhibition of GGDPS in human RPMI-8226 cells assessed as disruption of monoclonal protein trafficking by measuring accumulation of intracellular lambda light chain at 10 uM after 48 hrs by ELISA
Activity calls are given as the source filed them. No cut-off for these calls is given here.
Outcomes you can answer with include only these: active, inactive

Worked examples follow.
{"columns": ["Compound", "Category label"],
 "data": [
  ["CC(C)=CCC/C(C)=C/Cn1cc(CC(P(=O)(O)O)P(=O)(O)O)nn1", "inactive"],
  ["CC(C)=CCC/C(C)=C/CC(C/C=C(\\C)CCC=C(C)C)(P(=O)(O)O)P(=O)(O)O", "active"],
  ["CC(C)=CCCC(C)=CCn1cc(CC(P(=O)(O)O)P(=O)(O)O)nn1 (mixture of isomers)", "active"]
]}

Moving on to the next compound.
Q: Record request — test call for CC(C)=CCC/C(C)=C\Cn1cc(CC(P(=O)(O)O)P(=O)(O)O)nn1
A: active

====

Experimental system: Protein farnesyltransferase (Homo sapiens, UniProt P49354+P49356)
Procedure summary: Inhibition of recombinant FTase (unknown origin) assessed as decrease in prenylated fluorescent peptides level using dansyl-GCVLS and FPP as substrate after 1 hr by HPLC-fluorescence detection analysis
Exercise: state measured pIC50 for each of the compounds provided.
Numbers only, as −log10 of the molar value.

As a guide, the following entries are already answered.
{"columns": ["Compound", "Recorded number"],
 "data": [
  ["CC(C)=CCC[C@@]1(C)O[C@@H]1Cn1cc(CC(P(=O)(O)O)P(=O)(O)O)nn1 (racemic)", 3.40],
  ["CC(C)=CCC/C(C)=C\\Cn1cc(CC(P(=O)(O)O)P(=O)(O)O)nn1", 3.40],
  ["CC(C)=CCC[C@]1(C)O[C@@H]1Cn1cc(CC(P(=O)(O)O)P(=O)(O)O)nn1 (racemic)", 3.47]
]}

Could you now look at the following compound, please?
In plain terms, CC(C)=CCCC(C)=CCn1cc(CC(P(=O)(O)O)P(=O)(O)O)nn1 (mixture of isomers) has a documented pIC50 of 3.30
